This collection of values is drawn from PubChem BioAssay (NCI).

- Experiment Summary: NCI Yeast Anticancer Drug Screen. Data for the bub3 strain (AID 167)
- Protocol Conditions: S. cerevisiae bub3 mutant strain, at 50.0 µM, hits give high values
Compounds without any hit were thinned out: in the full panel of roughly 79,000, 15% have a hit.
Quantity Name: growth inhibition (%)
Answer with a number only, understood to be in %.

Some solved cases for reference:
[
  {
    "Compound": "CC1OC(OC2C(OC3CCC4(C)C(CCC5(C)C4CC=C4C6CC(C)(C)CCC6(CO)C(O)CC45C)C3(C)C)OC(C(=O)O)C(OC3OC(COC4OC(CO)C(O)C(O)C4O)C(O)C(O)C3O)C2O)C(O)C(O)C1O (stereo not given)",
    "Unit Annotation": "%",
    "growth inhibition": 93.4
  },
  {
    "Compound": "CC(=O)OCC1(O)OCC(OC(C)=O)C(OC(C)=O)C1OC(C)=O (stereo not given)",
    "Unit Annotation": "%",
    "growth inhibition": 7.9
  }
]

# growth inhibition of O=C(Nc1c(Cl)cccc1Cl)Oc1cccc2cccnc12 = 89.4

# growth inhibition of CC(=O)Nc1nnc(C)s1 = -19.3

# growth inhibition of O=C1c2ccccc2NC(=O)C2C1C(c1ccccc1)CC2(O)c1ccccc1 (stereo not given) = 69.5

# growth inhibition of CCCCCCCN=C(N)c1ccc(C(=O)OCc2ccccc2)cc1 = 99.4

# growth inhibition of Nc1cc2c(c[n+](CCCCCCCCCC[n+]3cc4c5ccccc5c(N)cc4c4ccccc43)c3ccccc23)c2ccccc12 = 81

# growth inhibition of CCN(CC)CCNCc1ccccc1 = 5.45

# growth inhibition of O=C(O)C1C(C(=O)O)C23CC2(C(=O)O)C2(C(=O)O)CCC3=C3CCCC312 (stereo not given) = 85.3

# growth inhibition of CCC(CC)COC(=O)C(C)=O = 4.3
